Reference source: patent US20250145711A1

Target: T1, TRCW5 antigen (CD3δε-Fc-Avi) (biotinylated (site not stated))
T1 construct: also called recombinant CD3
T1 sequence (chain, as listed by the source mutant limits assumed): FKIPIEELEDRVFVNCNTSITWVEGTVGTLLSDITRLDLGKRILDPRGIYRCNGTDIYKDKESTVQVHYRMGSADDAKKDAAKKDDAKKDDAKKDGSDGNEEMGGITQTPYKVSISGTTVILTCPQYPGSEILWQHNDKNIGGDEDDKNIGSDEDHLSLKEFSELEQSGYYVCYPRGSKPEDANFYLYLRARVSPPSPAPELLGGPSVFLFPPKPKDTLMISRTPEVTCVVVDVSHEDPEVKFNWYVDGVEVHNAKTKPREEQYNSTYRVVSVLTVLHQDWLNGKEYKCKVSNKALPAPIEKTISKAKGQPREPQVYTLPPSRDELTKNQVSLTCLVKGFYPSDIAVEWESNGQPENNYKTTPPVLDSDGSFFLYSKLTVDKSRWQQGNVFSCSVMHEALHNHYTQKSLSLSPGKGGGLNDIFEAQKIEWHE
Assay: ELISA after heat

Binder: CD3B2064 (scFv) scFv: QVQLVQSGAEVKKPGSSVKVSCKASGYTFTRSTMHWVKQAPGQGLEWIGYINPSSAYTNYAQKFQGRVTLTADKSTSTAYMELSSLRSEDTAVYYCASPQVHYDYNGFPYWGQGTLVTVSSGGSEGKSSGSGSESKSTGGSEIVLTQSPATLSASPGERVTLSCSASSSVSYMNWYQQKPGQSPRRWIYDSSKLASGVPARFSGSGSGRDYTLTISSLEPEDFAVYYCQQWSRNPPTFGGGTKVEIK
% Retained 60° C. [%]: 107
--
Binder: CD3B2054 (scFv) scFv: QVQLVQSGAEVKKPGSSVKVSCKASGYTFTRSTMHWVKQAPGQGLEWMGYINPSSAYTNYAQKFQGRVTLTADKSTSTAYMELSSLRSEDTAVYYCASPQVHYDYNGFPYWGQGTLVTVSSGGSEGKSSGSGSESKSTGGSEIVLTQSPATLSASPGERVTLSCSASSSVSYMNWYQQKPGQAPRRLIYDSSKLASGVPARFSGSGSGRDYTLTISSLEPEDFAVYYCQQWSRNPPTFGGGTKVEIK
% Retained 60° C. [%]: 100
--
Binder: CD3B2072 (scFv) scFv: QVQLVQSGAEVKKPGSSVKVSCKASGYTFTRSTMHWVRQAPGQGLEWMGYINPSSAYTNYNQKFQGRVTLTADKSTSTAYMELSSLRSEDTAVYYCASPQVHYDYNGFPYWGQGTLVTVSSGGSEGKSSGSGSESKSTGGSEIVLTQSPATLSASPGERVTLSCSASSSVSYMNWYQQKPGQSPRRWIYDSSKLASGVPARFSGSGSGRDYTLTISSLEPEDFAVYYCQQWSRNPPTFGGGTKVEIK
% Retained 60° C. [%]: 111
--
Binder: CD3B2040 (scFv) scFv: QVQLVQSGAEVKKPGSSVKVSCKASGYTFTRSTMHWVKQAPGQGLEWMGYINPSSAYTNYAQKFQGRVTLTADKSTSTAYMELSSLRSEDTAVYYCASPQVHYDYNGFPYWGQGTLVTVSSGGSEGKSSGSGSESKSTGGSEIVLTQSPATLSASPGERVTLSCSASSSVSYMNWYQQKPGQAPRRWIYDSSKLASGVPARFSGSGSGRDYTLTISSLEPEDFAVYYCQQWSRNPPTFGGGTKVEIK
% Retained 60° C. [%]: 106
--
Binder: CD3B2089 (scFv) scFv: QVQLVQSGAEVKKPGSSVKVSCKASGYTFTRSTMHWVRQAPGQGLEWMGYINPSSAYTNYAQKFQGRVTLTADKSTSTAYMELSSLRSEDTAVYYCASPQVHYDYNGFPYWGQGTLVTVSSGGSEGKSSGSGSESKSTGGSEIVLTQSPATLSASPGERVTLSCSASSSVSYMNWYQQKPGQAPRRWIYDSSKLASGVPARFSGSGSGRDYTLTISSLEPEDFAVYYCQQWSRNPPTFGGGTKVEIK
% Retained 60° C. [%]: 108
